Collected MIC values appear next to each entry.
System: P. aeruginosa PA01
Test: Minimum inhibitory concentration (MIC)
Conditions: Pseudomonas aeruginosa, PA01, read-out: Minimum inhibitory concentration (MIC)

In the examples that follow, each entry is paired with its recorded MIC.
COMPOUND	RECORDED_METRIC	DATA_VALUE
C[C@H]1COc2c(N3CCN(C)CC3)c(F)cc3c(=O)c(C(=O)O)cn1c23 [Lev, levofloxacin, reference compound]	MIC	0.25 µg/mL
Cc1nn2c(=O)cc(-c3ccc(Cl)cc3)[nH]c2c1-c1ccccc1	MIC	> 96 µg/mL
Clc1cc(Br)ccc1-c1ccc(CNCC2CCNCC2)o1	MIC	> 96 µg/mL

Below: the item to evaluate.
Name the reported MIC value associated with the compound `Cc1nnc(SCC2=NN(c3nc4ccccc4[nH]3)C(=O)C2)s1`
> 96 µg/mL
